# System Under Test: T1, human neonatal Fc receptor (hFcRn) (human, UniProt P55899 24-290; P61769 21-119)
# T1 construct: Biotinylated in the ELISA, Octet and yeast assays; also called human FcRn; huFcRn
# T1 sequence (P55899 24-290 limits assumed, chain 1 of 2): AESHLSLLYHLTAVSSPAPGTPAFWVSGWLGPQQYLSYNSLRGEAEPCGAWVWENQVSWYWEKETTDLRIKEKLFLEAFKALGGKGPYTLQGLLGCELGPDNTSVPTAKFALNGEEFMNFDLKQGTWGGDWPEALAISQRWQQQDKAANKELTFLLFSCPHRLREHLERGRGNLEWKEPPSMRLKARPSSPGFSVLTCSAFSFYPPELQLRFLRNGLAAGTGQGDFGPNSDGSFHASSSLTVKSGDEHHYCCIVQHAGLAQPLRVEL
# T1 sequence (P61769 21-119 limits assumed, chain 2 of 2): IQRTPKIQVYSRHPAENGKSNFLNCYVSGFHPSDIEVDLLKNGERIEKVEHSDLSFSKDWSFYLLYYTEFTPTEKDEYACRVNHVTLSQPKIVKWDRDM
# Assay Summary: SPR competition pH 5.5
Observation Type: EC50 (nM)
A number alone suffices; assume nM.

Entry variant Fc-fragment Fc-5-57 (other, soluble elsewhere) EPKSCDKTHTCPPCPAPELLGGPSVFLFPPKPKDTLMISRTPEVTCVVVDVSHEDPEVKFNWYVDGVEVHNAKTKPREEQYNSTYRVVSVLTVLHQDWLNGKEYKCKVSNKALPAPIEKTISKAKGQPREPQVYTLPPSRDELTKNQVSLTCLVKGFYPSDIAVEWESNGGCGKHWHQCGGGQPENNYKTTPPVLDSDGSFFLYSKLTVDKSRWQQGNVFSCSVMHEALHNHYTQKSLSLSPGK , EC50 reported as 180

Lab note: measured EC50 of variant Fc-fragment Fc-5-60 (other, library L5 isolate) EPKSCDKTHTCPPCPAPELLGGPSVFLFPPKPKDTLMISRTPEVTCVVVDVSHEDPEVKFNWYVDGVEVHNAKTKPREEQYNSTYRVVSVLTVLHQDWLNGKEYKCKVSNKALPAPIEKTISKAKGQPREPQVYTLPPSRDELTKNQVSLTCLVKGFYPSDIAVEWESNGGCQKGWVFCGGGQPENNYKTTPPVLDSDGSFFLYSKLTVDKSRWQQGNVFSCSVMHEALHNHYTQKSLSLSPGK was 67

Measured EC50 of variant Fc-fragment Fc-5-113 (other, soluble elsewhere) EPKSCDKTHTCPPCPAPELLGGPSVFLFPPKPKDTLMISRTPEVTCVVVDVSHEDPEVKFNWYVDGVEVHNAKTKPREEQYNSTYRVVSVLTVLHQDWLNGKEYKCKVSNKALPAPIEKTISKAKGQPREPQVYTLPPSRDELTKNQVSLTCLVKGFYPSDIAVEWESNGGCQGMWTWCGGGQPENNYKTTPPVLDSDGSFFLYSKLTVDKSRWQQGNVFSCSVMHEALHNHYTQKSLSLSPGK : 20
